B1: FAM164C (parent)
chain: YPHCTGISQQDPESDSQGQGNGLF

Variants of: B1
assay.explanation: protein stability index of a GFP-peptide fusion (GPS, HEK-293T) (PSI 1-6); higher = more stable;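 note: lentivirally expressed fusions sorted by FACS into six bins by GFP to DsRed ratio, PSI derived from sequencing read proportions per bin multiplied by bin number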
study.conditions: c terminus: a fixed tail appended
observable: protein stability index
One number for each entry.

Record protein stability index for all entries; do not skip any.
1. I7H
2. D15H
3. Q10H

Reply:
1: 4; 2: 3.66; 3: 3.65

Hey, can you go through the list below and give me protein stability index for every item?
1. Y1M
2. Q9T
3. N21I
4. Q10M

Reply:
[5.4, 3.63, 3.25, 3.84]

Could I get protein stability index for every one of these entries?
1. S14E
2. P12D
3. G18N
4. G20I
5. D15S
6. Q17E
7. N21A
8. D11R

Reply:
1: 3.84; 2: 3.91; 3: 3.58; 4: 3.02; 5: 3.73; 6: 4.4; 7: 3.83; 8: 3.29

Query: Reported protein stability index for Q10D : what is it?
Reply: 3.68
